Experiment: physchem
Type: physicochemical
Settings: pbs, pH 6.5
Endpoint: remaining at 2 h (%)
Give bare numbers, in %.

For the compound shown here, O=C(O)CCCc1ccc(N(CCCl)CCCl)cc1 [Chlorambucil, reference compound] , give the reported remaining at 2 h.
13.6

----------
Please provide measured remaining at 4 h for the entries that follow.
Assay: physchem
Assay type: physicochemical
Settings: PBS (pH 6.5), 240 min; read-out: Remaining Percentage
Answers are plain numbers, in %.

Compound: CC(C)(C)C(=O)OC[N+](C)(C)CCc1c[nH]c2ccccc12 [Compound 2]
Endpoint: remaining at 4 h
U: %
Assay result: 95.3

Query compound follows.
For the compound shown here, CN(C)C(=O)OC[N+](C)(C)CCc1c[nH]c2ccccc12 [Compound 1] , give the reported remaining at 4 h.
108
